- Subject of test: T1, human Myl12a-His (human, UniProt P19105 1-171)
- T1 construct: Made in E. coli; GST tag cleaved with PreScission Protease; DTT-treated monomer
- T1 sequence: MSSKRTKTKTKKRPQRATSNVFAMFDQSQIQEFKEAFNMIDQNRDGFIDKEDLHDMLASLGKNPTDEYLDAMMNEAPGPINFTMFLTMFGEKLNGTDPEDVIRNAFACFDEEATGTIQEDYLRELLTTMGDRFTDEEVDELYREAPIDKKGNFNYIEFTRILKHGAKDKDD
- Test: ELISA, human Myl12a-His coated, anti-human IgG-HRP
Test readout: binding result

Task item: Write down binding result measured for item chimeric antibody prepared from Antibody A (antibody, human IgG2, kappa, V domains shown, VH and VL amino acid numbers 13 and 15 are deduced as for Antibody A) VH: QVQLQQSGAEVVRPGASVTLSCKASGYTFTDYEMHWVKQTPVHGLEWIGAIDPETGGTAYNQKFKGKAILTADKSSNTAYMELRSLTSEDSAVYYCTDYDYDGFAYWGQGTLVTVSA VL: DVVMTQTPLSLPVSLGDQASISCRSSQSLVHSNGNTYLHWYLQKPGRSPKLLISKVSNRFSGVPDRFSGSGSGTDFTLKITRVEAEDLGVYFCSQNTHVPPLTFGAGTKLELKR
Reply: binds

Task item: Give the measured binding result for Humanized antibody No. 121 (antibody, human IgG2, kappa, V domains shown, human IgG2 (V234A, G237A, C-terminal Lys deleted) / kappa; Expi293F, Protein A purified; also called HA1-6/L4-2) VH: QVQLVQSGAEVKKPGSSVKVSCKASGYTFTDYEMHWVRQAPGQGLEWMGAIDPETGGTAYAQKFQGRVTITADKSTSTAYMELRSLRSEDTAVYYCADYDYDGFAYWGQGTLVTVSS VL: DIVMTQTPLSSPVTLGQPASISCRSSQSLVHSNGNTYLHWYQQRPGQPPRLLISKVSNRFSGVPDRFSGSGAGTDFTLKISRVEAEDVGVYFCSQNTHVPPLTFGGGTKVEIKR
Reply: binds

Task item: For the binder Humanized antibody No. 134 (antibody, human IgG2, kappa, V domains shown, human IgG2 (V234A, G237A, C-terminal Lys deleted) / kappa; Expi293F, Protein A purified; also called HK3-2/L4-2) VH: QVQLVQSGSELKKPGASVKVSCKASGYTFTDYEMHWVRQAPGQGLEWMGAIDPETGGTAYNQKFKGRFVFSLDTSVSTAYLQISSLKAEDTAVYYCADYDYDGFAYWGQGTLVTVSS VL: DIVMTQTPLSSPVTLGQPASISCRSSQSLVHSNGNTYLHWYQQRPGQPPRLLISKVSNRFSGVPDRFSGSGAGTDFTLKISRVEAEDVGVYFCSQNTHVPPLTFGGGTKVEIKR , give its reported binding result.
Reply: binds
